- subject_of_test: UniProt P42568
- protocol_details: inhibitors of AF9 AHD–DOT1L interaction, biochemical, AlphaLISA, percent inhibition, MBP-tagged AHD (AID 1794804)
- condition_label: MBP-AF9 AHD / biotin-DOT1L peptide binding, at 5 µM, stronger effect = higher value
Label yes when inhibition is at or above 20%; anything below gets no.

Check the entry O=C(NCC1CCNCC1)c1cc2ccc(-c3ccc(C(=O)N4CCCCCC4)cc3)cc2o1 : does inhibition equal or exceed 20%?
no

Check the entry CCN(CC)c1ccc(-c2ccc3cc(C(=O)NCC4CCNCC4)oc3c2)cc1 : does inhibition equal or exceed 20%?
yes

Check the entry CC(C)(C)c1cccc(-c2ccc3cc(C(=O)NCC4CCNCC4)[nH]c3c2)c1 : does inhibition equal or exceed 20%?
no

Check the entry O=C(NCC1CCNCC1)c1cc2ccc(-c3ccc(CO)cc3)cc2s1 : does inhibition equal or exceed 20%?
no

Check the entry O=C(NCC1CCNCC1)c1cc2ccc(-c3ccc(C(=O)N4CCCC4)cc3)cc2s1 : does inhibition equal or exceed 20%?
no

Check the entry O=C(NCC1CCNCC1)c1cc2ccc(-c3ccc(C4CCCCC4)cc3)cc2[nH]1 : does inhibition equal or exceed 20%?
yes

Check the entry CC(=O)c1ccc(-c2ccc3cc(C(=O)NCC4CCNCC4)[nH]c3c2)cc1 : does inhibition equal or exceed 20%?
yes

Check the entry O=C(NCC1CCNCC1)c1cc2ccc(-c3ccc(N4CCOCC4)cc3)cc2[nH]1 : does inhibition equal or exceed 20%?
yes

Check the entry O=C(NCC1CCNCC1)c1cc2ccc(-c3ccc(OC(F)(F)F)cc3)cc2s1 : does inhibition equal or exceed 20%?
no

---

- subject_of_test: Protein AF-9 (Homo sapiens) (UniProt P42568)
- Sequence (P42568 whole entry, looked up): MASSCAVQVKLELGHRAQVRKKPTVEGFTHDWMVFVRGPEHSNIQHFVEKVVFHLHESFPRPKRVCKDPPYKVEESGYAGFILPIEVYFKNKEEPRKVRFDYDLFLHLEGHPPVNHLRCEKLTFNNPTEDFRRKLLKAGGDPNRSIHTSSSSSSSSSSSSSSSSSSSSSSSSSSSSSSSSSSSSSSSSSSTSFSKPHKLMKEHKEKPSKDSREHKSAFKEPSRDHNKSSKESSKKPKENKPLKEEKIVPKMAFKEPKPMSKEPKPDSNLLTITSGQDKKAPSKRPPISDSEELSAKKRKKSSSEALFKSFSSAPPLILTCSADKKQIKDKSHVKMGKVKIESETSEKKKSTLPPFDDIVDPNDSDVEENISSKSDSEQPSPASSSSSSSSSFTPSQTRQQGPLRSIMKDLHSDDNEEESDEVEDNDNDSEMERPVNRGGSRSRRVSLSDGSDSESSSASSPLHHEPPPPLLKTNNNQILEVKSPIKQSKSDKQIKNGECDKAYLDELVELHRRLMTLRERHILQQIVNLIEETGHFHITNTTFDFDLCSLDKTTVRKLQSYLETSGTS
- protocol_details: inhibitors of AF9 AHD–DOT1L interaction, biochemical, AlphaLISA, percent inhibition, MBP-tagged AHD (AID 1794804)
- condition_label: MBP-AF9 AHD / biotin-DOT1L peptide binding, at 5 µM, stronger effect = higher value
measurement_label: inhibition (%)
Your answer is read as %, so omit the unit and give the number.

Data request, read-out inhibition, for O=C(NCC1CCNCC1)c1cc2ccc(-c3ccc(CN4CCCCC4)cc3)cc2s1
45

Data request, read-out inhibition, for O=C(NCC1CCNCC1)c1cc2ccc(-c3ccc(C(=O)N4CCC(N5CCCCC5)CC4)cc3)cc2o1
0

Data request, read-out inhibition, for O=C(NCC1CCNCC1)c1cc2cc(-c3ccc(-c4ccsc4)cc3)ccc2[nH]1
14

Data request, read-out inhibition, for CN1CCN(c2ccc(-c3ccc4cc(C(=O)NCC5CCNCC5)oc4c3)cc2)CC1
32

Data request, read-out inhibition, for Cc1ccc(-c2ccc3cc(C(=O)NCC4CCNCC4)sc3c2)cc1
47

Data request, read-out inhibition, for O=C(NCC1CCNCC1)c1cc2cc(-c3ccc(N4CCNCC4)cc3)ccc2[nH]1
36

Data request, read-out inhibition, for O=C(NCC1CCNCC1)c1cc2cc(-c3ccc(C(=O)N4CCCC4)cc3)ccc2s1
0

Data request, read-out inhibition, for O=C(NCC1CCNCC1)c1cc2ccc(N3CCC(N4CCCCC4)CC3)cc2s1
14

Data request, read-out inhibition, for O=C(NCC1CCNCC1)c1cc2ccc(-c3ccc(F)cc3)cc2s1
21

Data request, read-out inhibition, for O=C(NCC1CCNCC1)c1cc2ccc(-c3ccc(Cl)cc3)cc2s1
50

Data request, read-out inhibition, for CC(=O)Nc1ccc(-c2ccc3cc(C(=O)NCC4CCNCC4)sc3c2)cc1
0

Data request, read-out inhibition, for O=C(NCC1CCNCC1)c1cc2ccc(-c3ccc(C(=O)N4CCCCC4)cc3)cc2o1
0

---

Field: inhibition. Provide a value for each of the molecules that follow.
- subject_of_test: UniProtKB P42568
- protocol_details: inhibitors of AF9 AHD–DOT1L interaction, biochemical, AlphaLISA, percent inhibition, MBP-tagged AHD (AID 1794804)
- condition_label: MBP-AF9 AHD / biotin-DOT1L peptide binding, at 5 µM, stronger effect = higher value
Calls of active or inactive are those of the source.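 The calls were made as follows: active = inhibition above 55% when tested at 5 µM; inactive = the rest.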

Data request, read-out inhibition, for N#Cc1ccc(-c2ccc3[nH]c(C(=O)NCC4CCNCC4)cc3c2)cc1F
8% (inactive)

Data request, read-out inhibition, for Cc1cc(C#N)ccc1-c1ccc2[nH]c(C(=O)NCC3CCNCC3)cc2c1
0% (inactive)

Data request, read-out inhibition, for O=C(NCC1CCNCC1)c1cc2ccc(-c3ccsc3)cc2[nH]1
10% (inactive)
